# maps each entry to its zone of inhibition at 50 µg/mL
system: Aspergillus niger; assay: Antifungal activity against Aspergillus niger MTCC 282 at 50 ug/ml; type: functional; conditions: read-out: IZ
Field: numeric (mm). Do not append units.

Guide cases for zone of inhibition at 50 µg/mL, answers given:
{"Molecule smiles": "Cc1cc(=O)oc2cc(OC(=O)CNc3nc4ccccc4s3)ccc12", "Measurement type": "zone of inhibition at 50 µg/mL", "Units of measure": "mm", "Experimental value": 12.4}
{"Molecule smiles": "COc1ccc(NCC(=O)Oc2ccc3c(C)cc(=O)oc3c2)cc1", "Measurement type": "zone of inhibition at 50 µg/mL", "Units of measure": "mm", "Experimental value": 14.1}
{"Molecule smiles": "Cc1cc(=O)oc2cc(OC(=O)CNc3ccccc3Cl)ccc12", "Measurement type": "zone of inhibition at 50 µg/mL", "Units of measure": "mm", "Experimental value": 12.4}
{"Molecule smiles": "Cc1cccc(NCC(=O)Oc2ccc3c(C)cc(=O)oc3c2)c1", "Measurement type": "zone of inhibition at 50 µg/mL", "Units of measure": "mm", "Experimental value": 13.4}
{"Molecule smiles": "Cc1cc(=O)oc2cc(OC(=O)CNc3nccs3)ccc12", "Measurement type": "zone of inhibition at 50 µg/mL", "Units of measure": "mm", "Experimental value": 16.5}

Proceed to the following item.
Prompt: Notebook: pull reported zone of inhibition at 50 µg/mL for Aspergillus niger, entry COc1ccccc1NCC(=O)Oc1ccc2c(C)cc(=O)oc2c1
Response: 12.4

---

tested on: Escherichia coli; test: Antimicrobial activity against Escherichia coli MTCC 4315 at 25 ug/ml; assay type: functional; conditions: read-out: IZ
In this section, each of the compounds is paired with its reported zone of inhibition at 25 µg/mL.
Kindly provide the numeric value in mm only, without the unit symbol.

Worked examples follow.
{"Molecule smiles": "Cc1cc(=O)oc2cc(OC(=O)CNc3ccccc3Cl)ccc12", "zone of inhibition at 25 µg/mL / mm": 10.8}
{"Molecule smiles": "Cc1cc(=O)oc2cc(OC(=O)CNc3ccc(Cl)cc3)ccc12", "zone of inhibition at 25 µg/mL / mm": 10.8}
{"Molecule smiles": "Cc1ccc(NCC(=O)Oc2ccc3c(C)cc(=O)oc3c2)cc1", "zone of inhibition at 25 µg/mL / mm": 13}
{"Molecule smiles": "Cc1cccc(NCC(=O)Oc2ccc3c(C)cc(=O)oc3c2)c1", "zone of inhibition at 25 µg/mL / mm": 14}
{"Molecule smiles": "NCC[C@H](O)C(=O)N[C@@H]1C[C@H](N)[C@@H](O[C@H]2O[C@H](CN)[C@@H](O)[C@H](O)[C@H]2O)[C@H](O)[C@H]1O[C@H]1O[C@H](CO)[C@@H](O)[C@H](N)[C@H]1O", "zone of inhibition at 25 µg/mL / mm": 16.2}
{"Molecule smiles": "Cc1cc(=O)oc2cc(OC(=O)CNc3cccc([N+](=O)[O-])c3)ccc12", "zone of inhibition at 25 µg/mL / mm": 11.3}

Prompt: // returns reported zone of inhibition at 25 µg/mL for input Cc1cc(=O)oc2cc(OC(=O)CNN3C=NNC3)ccc12
Response: 14.1

Prompt: # query: zone of inhibition at 25 µg/mL of entry Cc1ccccc1NCC(=O)Oc1ccc2c(C)cc(=O)oc2c1
Response: 10.5

Prompt: Given Cc1cc(=O)oc2cc(OC(=O)CNc3nccs3)ccc12 , state its recorded zone of inhibition at 25 µg/mL.
Response: 10.2

Prompt: Look up zone of inhibition at 25 µg/mL: Cc1cc(=O)oc2cc(OC(=O)CNc3ccccc3[N+](=O)[O-])ccc12
Response: 10.1

Prompt: // query zone of inhibition at 25 µg/mL value for entry Cc1cc(=O)oc2cc(OC(=O)CNc3ccc([N+](=O)[O-])cc3)ccc12
Response: 14.2

Prompt: Entry COc1ccc(NCC(=O)Oc2ccc3c(C)cc(=O)oc3c2)cc1 : reported zone of inhibition at 25 µg/mL = ?
Response: 11.2
